The reported measurements were obtained from paper PMC8165160.

# assayedSystem: NTCP (Homo sapiens)
# Sequence (Q14973 1-349): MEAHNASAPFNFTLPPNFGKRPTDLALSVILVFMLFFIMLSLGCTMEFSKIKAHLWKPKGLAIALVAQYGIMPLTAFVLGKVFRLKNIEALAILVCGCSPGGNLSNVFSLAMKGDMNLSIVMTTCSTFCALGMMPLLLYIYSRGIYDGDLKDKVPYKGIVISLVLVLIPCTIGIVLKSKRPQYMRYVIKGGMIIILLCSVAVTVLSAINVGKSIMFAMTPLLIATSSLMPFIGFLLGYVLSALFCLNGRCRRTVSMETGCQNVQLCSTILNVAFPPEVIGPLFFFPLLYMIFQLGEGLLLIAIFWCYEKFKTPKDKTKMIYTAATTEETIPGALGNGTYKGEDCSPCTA
# experimentNotes: Transport inhibition in NTCP-HEK293 cells
# conditionParameters: NTCP IC50, substrate [3H]DHEAS
pIC50: −log10 of the molar value.
measure: pIC50

1. C=C(C)[C@@H]1CC[C@]2(C)CC[C@]3(C)[C@H](CC[C@@H]4[C@@]5(C)CCC(=O)C(C)(C)[C@@H]5CC[C@]43C)[C@@H]12 [Lupenone] ... < 3.00

====

# assayedSystem: ASBT (Homo sapiens, UniProt Q12908)
# Construct: The full-length open reading frames of NTCP, ASBT, and SOAT were cloned; expressed in transfected cells; host or cells: Flp-In T-REX HEK293 (ASBT-HEK293), tetracycline-induced
# Sequence (Q12908 1-348): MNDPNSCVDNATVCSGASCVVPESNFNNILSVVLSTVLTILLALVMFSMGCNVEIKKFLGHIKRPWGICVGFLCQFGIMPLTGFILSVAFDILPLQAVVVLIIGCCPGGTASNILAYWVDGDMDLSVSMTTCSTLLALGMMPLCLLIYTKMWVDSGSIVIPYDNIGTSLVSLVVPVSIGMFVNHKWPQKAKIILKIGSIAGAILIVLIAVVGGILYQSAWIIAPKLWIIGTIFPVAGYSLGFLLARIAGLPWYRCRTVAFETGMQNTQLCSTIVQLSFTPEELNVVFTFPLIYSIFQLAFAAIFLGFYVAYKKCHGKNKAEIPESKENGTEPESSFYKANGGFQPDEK
# experimentNotes: Transport inhibition in ASBT-HEK293 cells
# Format: cell-based
# conditionParameters: triterpenoid inhibitors; 1 µM [3H]TLC, 10 min after 5 min preincubation; read-out: ASBT IC50, substrate [3H]TLC
pIC50: −log10 of the molar value.
# key: entry, value: pIC50
measure: pIC50

1) C=C(C)[C@@H]1CC[C@]2(C(=O)O)CC[C@]3(C)[C@H](CC[C@@H]4[C@@]5(C)CC[C@H](O)C(C)(C)[C@@H]5CC[C@]43C)[C@@H]12 ... 3.71
2) C=C(C)[C@@H]1CC[C@]2(CO)CC[C@]3(C)[C@H](CC[C@@H]4[C@@]5(C)CC[C@H](OC(=O)/C=C/c6ccc(O)c(O)c6)C(C)(C)[C@@H]5CC[C@]43C)[C@@H]12 ... 4.00

====

# assayedSystem: SOAT (Homo sapiens, UniProt Q3KNW5)
# Construct: The full-length open reading frames of NTCP, ASBT, and SOAT were cloned; expressed in transfected cells; host or cells: Flp-In T-REX HEK293 (SOAT-HEK293), tetracycline-induced
# experimentNotes: Transport inhibition in SOAT-HEK293 cells
# Type: cell-based
# conditionParameters: substrate inhibitors; 200 nM [3H]DHEAS, 1 min after 5 min preincubation; read-out: SOAT IC50, substrate [3H]DHEAS
measure: IC50 (µM)

1) C[C@H](CCC(=O)NCCS(=O)(=O)O)[C@H]1CC[C@H]2[C@@H]3CC[C@@H]4C[C@H](O)CC[C@]4(C)[C@H]3CC[C@]12C [Taurolithocholic acid] ... 3.9

====

Listed here are molecules together with their documented IC50.
# assayedSystem: NTCP (Homo sapiens, UniProt Q14973)
# experimentNotes: Transport inhibition in NTCP-HEK293 cells
# conditionParameters: NTCP IC50, substrate [3H]DHEAS, substrate inhibitors; 200 nM [3H]DHEAS, 1 min after 5 min preincubation
Where a name gives a salt, the structure may show the parent alone.
measure: IC50

1) C[C@]12CC[C@H](OS(=O)(=O)O)CC1=CC[C@@H]1[C@@H]2CC[C@]2(C)C(=O)CC[C@@H]12 [DHEAS, Dehydroepiandrosterone sulfate] ... 3400 nM
2) C[C@H](CCC(=O)NCCS(=O)(=O)O)[C@H]1CC[C@H]2[C@@H]3CC[C@@H]4C[C@H](O)CC[C@]4(C)[C@H]3CC[C@]12C ... 1800 nM

====

# assayedSystem: ASBT (Homo sapiens, UniProt Q12908)
# Construct: The full-length open reading frames of NTCP, ASBT, and SOAT were cloned; expressed in transfected cells; host or cells: Flp-In T-REX HEK293 (ASBT-HEK293), tetracycline-induced
# Sequence (Q12908 1-348): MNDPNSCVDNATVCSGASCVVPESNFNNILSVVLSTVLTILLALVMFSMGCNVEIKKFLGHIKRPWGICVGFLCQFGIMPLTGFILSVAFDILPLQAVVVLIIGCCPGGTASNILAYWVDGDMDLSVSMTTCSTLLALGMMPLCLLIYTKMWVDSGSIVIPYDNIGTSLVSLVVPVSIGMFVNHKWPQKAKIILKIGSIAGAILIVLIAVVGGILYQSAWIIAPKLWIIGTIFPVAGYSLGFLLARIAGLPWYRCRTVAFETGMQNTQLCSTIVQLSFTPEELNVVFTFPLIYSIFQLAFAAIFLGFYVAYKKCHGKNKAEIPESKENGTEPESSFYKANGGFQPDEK
# experimentNotes: Transport inhibition in ASBT-HEK293 cells
# Type: cell-based
# conditionParameters: triterpenoid inhibitors; 1 µM [3H]TC, 10 min after 5 min preincubation; read-out: ASBT IC50, substrate [3H]TC
# Procedure: Cells were washed three times with PBS and were preincubated with the respective inhibitor in sodium transport buffer for 5 min at 37°C. Uptake was initiated by adding the respective radiolabeled substrate to the well and incubating for a fixed time as indicated in the figures at 37°C. […] Cell monolayers were lysed in 1 N NaOH with 0.1% SDS and the cell-associated radioactivity and protein content was determined as described above. […]
pIC50: −log10 of the molar value.
measure: pIC50

1. C=C(C)[C@@H]1CC[C@]2(C(=O)O)CC[C@]3(C)[C@H](CC[C@@H]4[C@@]5(C)CC[C@H](O)C(C)(C)[C@@H]5CC[C@]43C)[C@@H]12 [Betulinic acid] ... < 3.00
2. C=C(C)[C@@H]1CC[C@]2(C)CC[C@]3(C)[C@H](CC[C@@H]4[C@@]5(C)CCC(=O)C(C)(C)[C@@H]5CC[C@]43C)[C@@H]12 [Lupenone] ... < 3.00
3. C=C(C)[C@@H]1CC[C@]2(CO)CC[C@]3(C)[C@H](CC[C@@H]4[C@@]5(C)CC[C@H](OC(=O)/C=C/c6ccc(O)c(O)c6)C(C)(C)[C@@H]5CC[C@]43C)[C@@H]12 [3-O-Caffeoyl betulin] ... 3.30

====

# assayedSystem: SOAT (Homo sapiens)
# Construct: The full-length open reading frames of NTCP, ASBT, and SOAT were cloned; expressed in transfected cells; host or cells: Flp-In T-REX HEK293 (SOAT-HEK293), tetracycline-induced
# Sequence (Q3KNW5 1-377): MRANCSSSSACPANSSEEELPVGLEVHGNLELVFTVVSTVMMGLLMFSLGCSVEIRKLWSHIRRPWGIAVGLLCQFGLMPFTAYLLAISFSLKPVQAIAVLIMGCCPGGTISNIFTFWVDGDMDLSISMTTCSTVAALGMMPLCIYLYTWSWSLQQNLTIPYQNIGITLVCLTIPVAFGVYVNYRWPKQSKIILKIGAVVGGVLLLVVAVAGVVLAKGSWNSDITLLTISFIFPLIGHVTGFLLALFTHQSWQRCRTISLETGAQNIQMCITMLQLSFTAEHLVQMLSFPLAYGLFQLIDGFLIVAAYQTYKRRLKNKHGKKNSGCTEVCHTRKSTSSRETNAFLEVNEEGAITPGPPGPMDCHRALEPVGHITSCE
# experimentNotes: Transport inhibition in SOAT-HEK293 cells
# Type: cell-based
# conditionParameters: substrate inhibitors; 200 nM [3H]TLC, 1 min after 5 min preincubation; read-out: SOAT IC50, substrate [3H]TLC
measure: IC50 (nM)

1. C[C@H](CCC(=O)NCCS(=O)(=O)O)[C@H]1CC[C@H]2[C@@H]3CC[C@@H]4C[C@H](O)CC[C@]4(C)[C@H]3CC[C@]12C [Taurolithocholic acid] ... 2600

====

# assayedSystem: ASBT (Homo sapiens)
# Construct: The full-length open reading frames of NTCP, ASBT, and SOAT were cloned; expressed in transfected cells; host or cells: Flp-In T-REX HEK293 (ASBT-HEK293), tetracycline-induced
# experimentNotes: Transport inhibition in ASBT-HEK293 cells
# Format: cell-based
# conditionParameters: substrate inhibitors; 200 nM [3H]TC, 1 min after 5 min preincubation; read-out: ASBT IC50, substrate [3H]TC
# Procedure: Cells were washed three times with PBS and were preincubated with the respective inhibitor in sodium transport buffer for 5 min at 37°C. Uptake was initiated by adding the respective radiolabeled substrate to the well and incubating for a fixed time as indicated in the figures at 37°C. […] Cell monolayers were lysed in 1 N NaOH with 0.1% SDS and the cell-associated radioactivity and protein content was determined as described above. […]
pIC50: −log10 of the molar value.
measure: pIC50

1) C[C@H](CCC(=O)NCCS(=O)(=O)O)[C@H]1CC[C@H]2[C@@H]3CC[C@@H]4C[C@H](O)CC[C@]4(C)[C@H]3CC[C@]12C ... 5.72
